Catalogue of MEC (minimum effective concentration) readings, one per entry.
# assayedSystem: recombinant guanylate cyclase reporter cell line (Rattus norvegicus, UniProt P19686+P20595)
# Construct: expressed in transfected cells
# Sequence (P19686 whole entry): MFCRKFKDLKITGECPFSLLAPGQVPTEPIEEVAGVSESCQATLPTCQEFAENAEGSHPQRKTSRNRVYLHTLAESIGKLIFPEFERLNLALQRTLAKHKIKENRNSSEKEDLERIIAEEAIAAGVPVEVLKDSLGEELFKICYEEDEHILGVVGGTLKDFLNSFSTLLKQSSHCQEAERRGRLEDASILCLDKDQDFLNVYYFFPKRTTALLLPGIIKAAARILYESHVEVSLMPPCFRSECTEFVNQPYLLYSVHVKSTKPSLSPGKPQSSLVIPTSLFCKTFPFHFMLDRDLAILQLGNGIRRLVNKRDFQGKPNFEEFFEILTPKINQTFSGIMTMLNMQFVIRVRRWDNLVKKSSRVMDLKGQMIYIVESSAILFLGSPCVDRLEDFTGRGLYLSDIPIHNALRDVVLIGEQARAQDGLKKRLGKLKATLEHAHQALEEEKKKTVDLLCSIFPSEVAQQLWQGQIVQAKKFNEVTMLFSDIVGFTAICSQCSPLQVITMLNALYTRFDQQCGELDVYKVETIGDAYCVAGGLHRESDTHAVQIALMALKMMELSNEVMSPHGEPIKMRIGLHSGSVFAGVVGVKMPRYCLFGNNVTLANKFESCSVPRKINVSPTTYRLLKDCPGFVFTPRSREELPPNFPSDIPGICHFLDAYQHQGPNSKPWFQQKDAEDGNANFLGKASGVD
# Sequence (P20595 whole entry): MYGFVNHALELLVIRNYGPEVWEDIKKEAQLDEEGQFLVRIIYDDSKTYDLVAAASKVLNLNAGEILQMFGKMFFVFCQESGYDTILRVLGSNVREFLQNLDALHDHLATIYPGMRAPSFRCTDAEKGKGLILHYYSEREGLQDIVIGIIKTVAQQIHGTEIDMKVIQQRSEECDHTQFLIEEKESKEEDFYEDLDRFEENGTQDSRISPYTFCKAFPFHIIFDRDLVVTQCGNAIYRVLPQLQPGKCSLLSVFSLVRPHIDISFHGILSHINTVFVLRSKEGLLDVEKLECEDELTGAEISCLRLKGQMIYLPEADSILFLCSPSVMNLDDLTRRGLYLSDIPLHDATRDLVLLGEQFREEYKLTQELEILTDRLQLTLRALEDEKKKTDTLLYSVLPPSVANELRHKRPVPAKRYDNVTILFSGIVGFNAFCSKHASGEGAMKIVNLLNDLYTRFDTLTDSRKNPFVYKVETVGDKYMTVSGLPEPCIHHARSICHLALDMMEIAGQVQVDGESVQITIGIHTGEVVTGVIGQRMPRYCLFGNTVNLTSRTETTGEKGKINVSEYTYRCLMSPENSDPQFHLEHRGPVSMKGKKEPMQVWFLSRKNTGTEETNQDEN
# experimentalDetails: Effect on a recombinant guanylate cyclase reporter cell line (B-2)
# Assay type: cell-based
# conditionDetails: in some cases mean values for individual determinations
Where a name gives a salt, the structure may show the parent alone.
Quick reminder: number only, in µM, skip the unit.

Cc1cc(OCc2c(F)cccc2F)n2nc(C)c(C(=O)N[C@@H]3CCNC3=O)c2c1 = 3.0

Item: Cc1cc(OCc2c(F)ccc(F)c2F)n2nc(C)c(C(=O)NC(C#N)c3ccc(Cl)cc3)c2c1 (centres unmarked) | MEC (minimum effective concentration): 1.0

Item: CCC(C)(N)CNC(=O)c1c(C)nn2c(OCc3c(F)cccc3F)cc(C)cc12 (single isomer, unassigned) | MEC (minimum effective concentration): 0.3

Item: Cc1cc(OCc2c(F)cccc2F)n2nc(C)c(C(=O)NC3CC(=O)Nc4ccccc43)c2c1 (racemic) [Example 76, trifluoroacetate] | MEC (minimum effective concentration): 0.3

Item: Cc1cc(OCc2c(F)ccc(F)c2F)n2nc(C)c(C(=O)NCCN(C)C)c2c1 | MEC (minimum effective concentration): 3.0

Item: Cc1cc(OCc2c(F)cccc2F)n2nc(C)c(C(=O)NCC3(N)CC3)c2c1 | MEC (minimum effective concentration): 0.3

Item: Cc1cc(OCc2c(F)cccc2F)n2nc(C)c(C(=O)NCC(C)(N)CCC(F)(F)F)c2c1 (single isomer, unassigned) [Example 42] | MEC (minimum effective concentration): 0.3

Item: Cc1cc(OCc2c(F)cccc2F)n2nc(C)c(C(=O)NC(CN)c3ccc(F)c(F)c3)c2c1 (centres unmarked) | MEC (minimum effective concentration): 0.3

Item: Cc1cc(OCc2c(F)ccc(F)c2F)n2nc(C)c(C(=O)NCC3(O)CC3)c2c1 | MEC (minimum effective concentration): 0.3

Item: Cc1cc(OCc2c(F)cccc2F)n2nc(C)c(C(=O)N[C@H]3c4ccccc4C[C@H]3O)c2c1 [Example 71, trifluoroacetate] | MEC (minimum effective concentration): 0.3

Item: Cc1cc(OCc2c(F)cccc2F)n2nc(C)c(C(=O)NC3CCCCNC3)c2c1 (racemic) | MEC (minimum effective concentration): 0.3

====

# assayedSystem: recombinant guanylate cyclase reporter cell line (Rattus norvegicus, UniProt P19686+P20595)
# Construct: expressed in transfected cells
# experimentalDetails: Effect on a recombinant guanylate cyclase reporter cell line (B-2)
# Format: cell-based
# conditionDetails: in some cases mean values for individual determinations
propertyMeasured: MEC (minimum effective concentration) (µM)
Quick reminder: number only, in µM, skip the unit.

// known answers, use as guide
Cc1cc(OCc2c(F)cccc2F)n2nc(C)c(C(=O)N[C@H]3c4ccccc4C[C@H]3CO)c2c1 (relative stereo) = 0.3
CCOC(=O)c1cccc(C(CN)NC(=O)c2c(C)nn3c(OCc4c(F)cccc4F)cc(C)cc23)n1 (racemic) = 3.0
Cc1cc(OCc2c(F)ccc(F)c2F)n2nc(C)c(C(=O)NCC(C)(N)C3CC3)c2c1 (racemic) = 1.0
Cc1cc(OCc2c(F)cccc2F)n2nc(C)c(C(=O)NCC3(N)COC3)c2c1 = 3.0

Please turn your attention to the following entry.
Item: Cc1cc(OCc2c(F)cccc2F)n2nc(C)c(C(=O)NC3CC(C)Nc4ccc(C(F)(F)F)nc43)c2c1 (single isomer, unassigned; ent-7) | MEC (minimum effective concentration): 3.0
